This section presents variants with their documented protein stability index values.
B1: OAS1 (parent)
chain: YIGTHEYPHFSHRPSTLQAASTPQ

- Variants of: B1
- protocol-summary: protein stability index of a GFP-peptide fusion (GPS, HEK-293T) (PSI 1-6); higher = more stable;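 further: lentivirally expressed fusions sorted by FACS into six bins by GFP to DsRed ratio, PSI derived from sequencing read proportions per bin multiplied by bin number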
- test-conditions: c terminus: a fixed tail appended
Respond numerically, and do not add a unit to the figure.

Recorded protein stability index, per entry:
# mutation-annotation, observed-property, endpoint-result
data = [
    ("S21Q", "protein stability index", 2),
    ("I2N", "protein stability index", 3.29),
    ("Q18Y", "protein stability index", 2.37),
    ("P8H", "protein stability index", 2.45),
    ("P23V", "protein stability index", 1.81),
]

Lookup: Report protein stability index for `T16L` please.
Found: 2.22

Lookup: Report protein stability index for `G3H` please.
Found: 1.89

Lookup: Report protein stability index for `H12I` please.
Found: 1.72
